Exercise: for every item that follows, state its recorded pIC50.
TGT: NAMPT (Homo sapiens, UniProt P43490)
Construct: His tag; host or cells: E. coli
Sequence (P43490 whole entry): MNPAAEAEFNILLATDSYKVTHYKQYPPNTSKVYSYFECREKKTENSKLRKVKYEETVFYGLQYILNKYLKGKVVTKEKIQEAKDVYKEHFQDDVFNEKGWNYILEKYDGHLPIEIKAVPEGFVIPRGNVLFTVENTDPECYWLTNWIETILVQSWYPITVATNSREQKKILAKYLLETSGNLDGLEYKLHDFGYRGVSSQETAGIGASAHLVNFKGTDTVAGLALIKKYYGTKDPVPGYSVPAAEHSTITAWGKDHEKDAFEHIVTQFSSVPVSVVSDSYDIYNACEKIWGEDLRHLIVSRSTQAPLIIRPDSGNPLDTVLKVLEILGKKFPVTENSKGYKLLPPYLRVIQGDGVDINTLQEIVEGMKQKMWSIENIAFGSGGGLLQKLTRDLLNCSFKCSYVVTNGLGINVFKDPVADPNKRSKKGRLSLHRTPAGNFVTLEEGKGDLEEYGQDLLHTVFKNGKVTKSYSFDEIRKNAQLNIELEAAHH
ASSAY_COMMENT: Biochemical inhibition assay: NAMPT enzymatic reaction, NMN quantified by mass spectrometry
MEASUREMENT_CONTEXT: NAMPT enzymatic reaction; read-out: Biochem IC50
Give bare numbers, as −log10 of the molar value.

> print(dat)
                                 mol.smiles  test.readout  numeric.result
1  COc1cc(S(=O)(=O)c2ccc(CNC(=O)c3cnc4nccn4c3)cc2)ccc1Cl         pIC50            8.57
2  Cc1cccc(S(=O)(=O)c2ccc(CNC(=O)c3cc4ccncc4o3)cc2)c1C         pIC50            7.29
3  COc1ccc(F)c(S(=O)(=O)c2ccc(CNC(=O)c3cc4ccncc4s3)cc2)c1         pIC50            8.64
4  O=C(NCc1ccc(S(=O)(=O)c2ccccc2OC(F)(F)F)cc1)c1cc2ccncc2s1         pIC50            8.40
5  Cc1ccc(S(=O)(=O)c2ccc(CNC(=O)c3cc4cnccc4[nH]3)cc2)cc1F         pIC50            8.10

The following compounds each have a reported value; give each one's pIC50.
1. O=C(NCc1ccc(S(=O)(=O)N2CCCCC2)cc1)c1cccnc1
2. CCOc1ccc(S(=O)(=O)c2ccc(CNC(=O)c3cc4ccncc4o3)cc2)cc1
3. CCOc1cc(F)ccc1S(=O)(=O)c1ccc(CNC(=O)c2ccc3nccn3c2)cc1
4. CCCOc1ccc(Cl)cc1S(=O)(=O)c1ccc(CNC(=O)c2cc3cnccc3[nH]2)cc1
5. O=C(NCc1ccc(S(=O)(=O)c2ccccc2)cc1)c1ccc2ccncc2c1

*A*
1: 7.41; 2: 8.60; 3: 7.50; 4: 8.12; 5: 6.66
